Biological target: Fructose-bisphosphate aldolase (Helicobacter pylori (strain ATCC 700392 / 26695))
Sequence (P56109 whole entry): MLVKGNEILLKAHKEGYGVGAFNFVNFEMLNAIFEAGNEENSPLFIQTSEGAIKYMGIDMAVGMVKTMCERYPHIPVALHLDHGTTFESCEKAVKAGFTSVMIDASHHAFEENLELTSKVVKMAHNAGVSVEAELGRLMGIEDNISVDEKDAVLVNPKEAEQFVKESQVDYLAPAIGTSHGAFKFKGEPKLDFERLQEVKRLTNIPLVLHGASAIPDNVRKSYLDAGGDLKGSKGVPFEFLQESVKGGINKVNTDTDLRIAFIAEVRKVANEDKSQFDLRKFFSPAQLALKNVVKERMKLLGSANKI
Assay: Inhibition of Helicobacter pylori recombinant zinc dependent class 2 Fba expressed in Escherichia coli JM109
MEASUREMENT KIND: Ki (µM)

{"MOLECULE": "O=C([C@H](O)COP(=O)(O)O)[C@H](O)C(O)COP(=O)(O)O (stereo partly specified)", "MEASUREMENT KIND": "Ki", "READING": 17}

* * *

Target: Fructose-bisphosphate aldolase (Candida albicans (strain SC5314 / ATCC MYA-2876), UniProt Q9URB4)
Sequence (Q9URB4 whole entry): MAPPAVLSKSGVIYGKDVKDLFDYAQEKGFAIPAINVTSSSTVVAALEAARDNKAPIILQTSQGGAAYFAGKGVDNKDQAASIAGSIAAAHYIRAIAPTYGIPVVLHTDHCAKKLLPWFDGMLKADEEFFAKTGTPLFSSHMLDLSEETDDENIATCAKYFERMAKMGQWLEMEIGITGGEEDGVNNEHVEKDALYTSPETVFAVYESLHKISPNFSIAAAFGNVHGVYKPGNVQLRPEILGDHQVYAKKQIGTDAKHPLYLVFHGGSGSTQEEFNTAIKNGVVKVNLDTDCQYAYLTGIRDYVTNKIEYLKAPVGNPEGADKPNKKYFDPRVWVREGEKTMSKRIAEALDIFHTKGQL
Assay: Inhibition of Candida albicans zinc dependent class 2 Fba
pKi: −log10 of the molar value.

{"MOLECULE": "O=C([C@H](O)COP(=O)(O)O)[C@H](O)C(O)COP(=O)(O)O (stereo partly specified)", "pKi": 4.07}
